The measured values listed here are drawn from ChEMBL document CHEMBL3992553.

# Test system: Acinetobacter baumannii
# assay procedure: Antibacterial activity against Acinetobacter baumannii DSM 30007 after 18 hrs
# Assay type: functional
# test settings: DSM 30007, 18 h
reported metric: EC50

Entry CC(C)(C)NC(=O)C1(C)COCC(=O)N1/N=C/c1ccc([N+](=O)[O-])o1 (centres undefined) ; assay system Acinetobacter baumannii; EC50 recorded at > 100 µM

Entry CC1(C(=O)NC2CCCCC2)CN(S(C)(=O)=O)CC(=O)N1/N=C/c1ccc([N+](=O)[O-])o1 (centres undefined) ; assay system Acinetobacter baumannii; EC50 recorded at > 100 µM

Entry CC1(C(=O)NCc2ccccc2)CSCC(=O)N1/N=C/c1ccc([N+](=O)[O-])o1 (centres undefined) ; assay system Acinetobacter baumannii; EC50 recorded at > 100 µM

Entry O=C(O)c1cn(C2CC2)c2cc(N3CCNCC3)c(F)cc2c1=O ; assay system Acinetobacter baumannii; EC50 recorded at 0.2 µg/mL

====

# assay procedure: Cytotoxicity against human KB-3-1 cells assessed as reduction in cell viability after 5 days by WST1 assay
# Type: cell-based
# test settings: human, KB-3-1 cells
reported metric: IC90 at 120 h (µM)
Report only the number, with the unit µM understood.

For record CC1(C(=O)NC2CCCCC2)CSCC(=O)N1/N=C/c1ccc([N+](=O)[O-])o1 (stereo not drawn) the listed IC90 at 120 h is 100

For record CC1(C(=O)NC2CCCCC2)CCCC(=O)N1/N=C/c1ccc([N+](=O)[O-])o1 (stereo not drawn) the listed IC90 at 120 h is 100

====

Assignment: determine reported EC50 for the given molecules.
# Tested on: Pseudomonas aeruginosa
# assay procedure: Antibacterial activity against Pseudomonas aeruginosa PA7 DSM 24068 after 18 hrs
# Format: functional
# test settings: PA7 DSM 24068, 18 h

For record CC1(C(=O)NC2CCCCC2)CN(S(C)(=O)=O)CC(=O)N1/N=C/c1ccc([N+](=O)[O-])o1 (centres undefined) the listed EC50 is > 100 µM

For record CC(C)(C)NC(=O)C1(C)COCC(=O)N1/N=C/c1ccc([N+](=O)[O-])o1 (centres undefined) the listed EC50 is > 100 µM

For record NCC[C@H](O)C(=O)N[C@@H]1C[C@H](N)[C@@H](O[C@H]2O[C@H](CN)[C@@H](O)[C@H](O)[C@H]2O)[C@H](O)[C@H]1O[C@H]1O[C@H](CO)[C@@H](O)[C@H](N)[C@H]1O [AMIKACIN] the listed EC50 is 3.8 µg/mL

For record CC1(C(=O)NCc2ccccc2)CSCC(=O)N1/N=C/c1ccc([N+](=O)[O-])o1 (centres undefined) the listed EC50 is > 100 µM

====

Assignment: determine reported MIC for the given molecules.
# Tested on: Staphylococcus aureus
# assay procedure: Antibacterial activity against methicillin-resistant Staphylococcus aureus RKI 11-02670 after 18 hrs
# Type: functional
# test settings: RKI 11-02670, 18 h
Report only the number, with the unit µM understood.

For record CC1(C(=O)NCc2ccccc2)COCC(=O)N1/N=C/c1ccc([N+](=O)[O-])o1 (centres undefined) the listed MIC is 100

For record CC1(C(=O)NC2CCCCC2)COCC(=O)N1/N=C/c1ccc([N+](=O)[O-])o1 (centres undefined) the listed MIC is 100

For record CC1(C(=O)NCc2ccccc2)CCC(=O)N1/N=C/c1ccc([N+](=O)[O-])o1 (centres undefined) the listed MIC is 95

For record CC1(C(=O)NCc2ccccc2)CCCC(=O)N1/N=C/c1ccc([N+](=O)[O-])o1 (centres undefined) the listed MIC is 100

For record CC1(C(=O)NC2CCCCC2)CSCC(=O)N1/N=C/c1ccc([N+](=O)[O-])o1 (centres undefined) the listed MIC is 100
